Biological target: T1, Bud14, P27637
T1 sequence (P27637 247-328, looked up): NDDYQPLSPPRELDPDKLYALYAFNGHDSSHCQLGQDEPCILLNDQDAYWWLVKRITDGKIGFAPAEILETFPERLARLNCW
Assay: SPOT array
Conditions: median of control spots 956
# strict inequality: SPOT intensity < 7 yields Y, everything else yields N

{"binder": "NSMRPPLLIPAATTK", "category": "N"}
{"binder": "ILARAILTIPRVLDK", "category": "N"}
{"binder": "RKNRAPPQRPRFNRE", "category": "N"}
{"binder": "TKPTPPPKPSHLKPK", "category": "Y"}
{"binder": "GTIARPLFLVVLFFI", "category": "N"}
{"binder": "RRSKSLPTTPGIRSG", "category": "N"}
{"binder": "ISPPASPPPEFDFSK", "category": "Y"}
{"binder": "KTKQQKPAIPQKKSF", "category": "Y"}
{"binder": "SKAKRPKFLLDLQIK", "category": "Y"}
{"binder": "RKRRTHLRLPLIRSN", "category": "N"}
{"binder": "DGNEEKPLLPTRPNK", "category": "Y"}
{"binder": "TSIEIPKRSPLRFTS", "category": "Y"}
{"binder": "LKQRFFLMFPKSIIW", "category": "N"}
{"binder": "RKQRSIPLSPIVPES", "category": "Y"}
{"binder": "QHQQRQPKRPKRYSL", "category": "N"}
{"binder": "PELAPKREAPKPPAN", "category": "Y"}
{"binder": "SPLGAPPPPPHKDHL", "category": "Y"}
